Test system: HEK-293T
Test: Incucyte cell viability with HEK293T; also: unitless GR value; below 1 slowed growth and below 0 cell loss
Format: toxicity, cell-based
Conditions: human, 0 h, 10 µM, compound concentration 10 uM, replicate number 1
recorded-metric: Growth Rate
Respond using a number only.

Consider the worked cases shown below.
>  <smiles-input>
CN1C(=O)Cc2ccc(-c3ccc(C[C@@H](C#N)NC(=O)[C@H]4N[C@@H]5CC[C@H]4C5)c(F)c3)cc21

>  <Growth Rate>
0.62

$$$$
>  <smiles-input>
Cn1ncc(NC(=O)c2nc(-c3c(F)cccc3F)sc2N)c1N1CC[C@@H](N)[C@H](F)CC1

>  <Growth Rate>
-1

$$$$
>  <smiles-input>
N#Cc1cccc(-c2c[nH]c3ncnc(N4CCOCC4)c23)c1

>  <Growth Rate>
-0.86

$$$$
>  <smiles-input>
Nc1ncnc2c1c(I)cn2[C@@H]1O[C@H](CO)[C@@H](O)[C@H]1O

>  <Growth Rate>
-0.62

$$$$

Then this molecule:
stdin: Lab note: need Growth Rate for CCC(F)(F)c1cc(N2CCC(S(C)(=O)=O)CC2)nc2sc(C(N)=O)c(N)c12 on HEK-293T, anyone have it?
stdout: -0.07

====

Test system: U2OS
Test: Incucyte cell viability with U2OS; also: unitless GR value; below 1 slowed growth and below 0 cell loss
Type: toxicity, cell-based
Conditions: human, 18 h, 10 µM, compound concentration 10 uM, replicate number 2
Measured Growth Rate, listed per entry.

Consider the worked cases shown below.
>  <molecule>
COc1ccc(Br)cc1S(=O)(=O)NC(=O)/C=C/c1cc(Cl)ccc1Cc1ccc2ccccc2c1

>  <measurement-target>
U2OS

>  <recorded-metric>
Growth Rate

>  <measured-result>
0.86

$$$$
>  <molecule>
Cc1ccccc1Oc1cc(-n2c(=O)cc(C(F)(F)F)[nH]c2=O)c2ccccc2c1Cl [BAY-069]

>  <measurement-target>
U2OS

>  <recorded-metric>
Growth Rate

>  <measured-result>
0.86

$$$$
>  <molecule>
COc1ccc(-n2nc(C(F)(F)F)cc2-c2ccc(Cl)cc2)cc1 [SC-560]

>  <measurement-target>
U2OS

>  <recorded-metric>
Growth Rate

>  <measured-result>
0.95

$$$$

stdin: Reported Growth Rate, molecule CC(=O)N(CCN(C)C)c1ccc(N/C(=C2\C(=O)Nc3cc(Cl)ccc32)c2ccccc2)cn1 : ____
stdout: 0.1

stdin: Reported Growth Rate, molecule Cn1ccc(Cn2cnc(-c3ccc(F)cc3)c2-c2ccnc3[nH]ccc23)n1 : ____
stdout: 0.95

stdin: Reported Growth Rate, molecule COc1cc(/C=C(\C#N)C(=O)Nc2nnc(C(F)(F)F)s2)ccc1OCc1ccc(C(F)(F)F)cc1C(F)(F)F : ____
stdout: 0.85

stdin: Reported Growth Rate, molecule Cl.c1ccc2c(c1)CCC[C@H]2Nc1nc2ccccc2[nH]1 : ____
stdout: 0.95

stdin: Reported Growth Rate, molecule CC(C)C[C@H](NC(=O)c1cc2ccccc2s1)C(=O)N1CCN(C(=O)[C@H](CO)NS(=O)(=O)c2ccc(Cl)cc2Cl)CC1 : ____
stdout: 0.58

stdin: Reported Growth Rate, molecule COc1ccc(Cl)cc1[C@]1(F)C(=O)Nc2cc(C(F)(F)F)ccc21 [FLINDOKALNER] : ____
stdout: 0.88

====

Measured Growth Rate, listed per entry.
System: HEK-293T
Assay: Incucyte cell viability with HEK293T; also: unitless GR value; below 1 slowed growth and below 0 cell loss
Type: toxicity, cell-based
Details: human, 0 h, 10 µM, compound concentration 10 uM, replicate number 2
Respond using a number only.

Consider the worked cases shown below.
>  <molecule>
CS(=O)(=O)NCC[C@H](NC(=O)c1cncc2c1cnn2-c1ccc(F)cc1)c1ccnc(S(C)(=O)=O)c1

>  <measured-result>
0.23

$$$$
>  <molecule>
CC[C@@H](Nc1c(C#N)c(-c2ccc(-c3cccc(C)c3F)cc2)nc2cnccc12)C(=O)O

>  <measured-result>
0.76

$$$$

stdin: Lab note: need Growth Rate for C=C[C@@]12CCc3cc(O)ccc3[C@H]1CC[C@@]1(C)[C@H]2CC[C@@H]1O on HEK-293T, anyone have it?
stdout: -0.37

stdin: Lab note: need Growth Rate for Cc1ccc(S(=O)(=O)O)cc1.Cn1cc(-c2ccc(F)c(C(F)(F)F)c2)nc1C1CCN(c2ncnc3[nH]ncc23)CC1 on HEK-293T, anyone have it?
stdout: -0.63

stdin: Lab note: need Growth Rate for Oc1c(CN2CCCC2)cc(COCc2ccccc2)c2cccnc12 on HEK-293T, anyone have it?
stdout: -0.99

stdin: Lab note: need Growth Rate for OCC1OC(n2cnc3cc(Cl)c(Cl)cc32)C(O)C1O (centres undefined) on HEK-293T, anyone have it?
stdout: 0.84

stdin: Lab note: need Growth Rate for COc1cc(OC)c(NC(=O)Nc2cc(C)on2)cc1Cl on HEK-293T, anyone have it?
stdout: 0.7

stdin: Lab note: need Growth Rate for CCc1ccccc1C(=O)Nc1n[nH]c2c(C)c(F)c(C3C(C#N)=C(C)N(C)C(C)=C3C#N)cc12 on HEK-293T, anyone have it?
stdout: -0.99

stdin: Lab note: need Growth Rate for O=C1N=C(NCc2cccs2)S/C1=C\c1ccc2ncccc2c1 on HEK-293T, anyone have it?
stdout: -0.64

stdin: Lab note: need Growth Rate for CN[C@@H](C)C/C=C/c1cncc(OC(C)C)c1 on HEK-293T, anyone have it?
stdout: 0.86

stdin: Lab note: need Growth Rate for C=CC(=O)N1CCC[C@@H](n2nc(-c3ccc(Oc4ccccc4)cc3)c3c(N)ncnc32)C1 on HEK-293T, anyone have it?
stdout: -1

stdin: Lab note: need Growth Rate for CC(=O)N1CCC(c2ccc(C(=O)NC3=NCCN3)cc2C(F)(F)F)CC1 on HEK-293T, anyone have it?
stdout: -0.32

stdin: Lab note: need Growth Rate for CC1CN(CC(=O)N2CC(C)(C)c3nc(CO)c(Cc4ccc(F)cc4)cc32)C(CN2CCOCC2C)CN1 (centres undefined) on HEK-293T, anyone have it?
stdout: -0.63

====

System: U2OS
Experiment: Incucyte cell viability with U2OS; also: unitless GR value; below 1 slowed growth and below 0 cell loss
Format: toxicity, cell-based
Conditions: human, 12 h, 10 µM, compound concentration 10 uM, replicate number 2
Given measured Growth Rate, output Condition met if it is greater than or equal to 0.8 and Condition not met if not.

Look over these answered cases.
>  <molecule>
Cc1cc(CN(CC(=O)Nc2ccc(Cl)cc2Cl)C2CCCCC2)ccc1OCC(=O)O

>  <class-assignment>
Condition met

$$$$
>  <molecule>
CCN1CCN(Cc2ccc(NC(=O)c3ccc(C)c(NC(=O)c4cncc(-c5cccs5)c4)c3)cc2C(F)(F)F)CC1

>  <class-assignment>
Condition not met

$$$$
>  <molecule>
OC(CN1CCC(Cc2ccc(F)cc2)CC1)c1ccc(Cl)cc1 (stereo not drawn)

>  <class-assignment>
Condition met

$$$$
>  <molecule>
COc1ccccc1-c1cc(Nc2cccc(CS(N)(=O)=O)c2)ncn1

>  <class-assignment>
Condition not met

$$$$
>  <molecule>
CN1CCN(c2ccc(-n3cc(-c4ccncc4OCC4CCNCC4)cn3)cc2)CC1

>  <class-assignment>
Condition not met

$$$$
>  <molecule>
O=C(NCc1ccc(F)cc1)C1CCN(S(=O)(=O)c2cc(Cl)cc(Cl)c2)CC1

>  <class-assignment>
Condition met

$$$$
>  <molecule>
CN(c1ccc(C(F)(F)F)cc1)S(=O)(=O)c1ccc(C(=O)Nc2nc(-c3ccccn3)cs2)cc1

>  <class-assignment>
Condition not met

$$$$
>  <molecule>
Cc1c(N2CCCC2)nc2ccc(Br)cc2c1C(=O)NC[C@H](CCC(=O)O)c1ccccc1Cl

>  <class-assignment>
Condition met

$$$$
>  <molecule>
O=C(O)c1cccc(C2=C(c3cc(Cl)ccc3OCc3ccc(F)cc3F)CCC2)n1

>  <class-assignment>
Condition met

$$$$
>  <molecule>
COc1ccc2c(O[C@@H]3C[C@H]4C(=O)N[C@]5(C(=O)NS(=O)(=O)C6(C)CC6)CC5/C=C\CCCCC[C@H](NC(=O)c5ccn(C)n5)C(=O)N4C3)cc(OC(C)C)nc2c1C (stereo partly drawn)

>  <class-assignment>
Condition not met

$$$$

stdin: Given CCN1CCN(Cc2ccc(Nc3ncc(F)c(-c4cc(F)c5nc(C)n(C(C)C)c5c4)n3)nc2)CC1.CS(=O)(=O)O , state whether its Growth Rate is at least 0.8.
stdout: Condition met

stdin: Given Br.CO[C@H]1CC=C2CCN3CCC4=C(CC(=O)OC4)[C@]23C1 , state whether its Growth Rate is at least 0.8.
stdout: Condition not met

stdin: Given CCC(=O)N[C@H]1CC[C@@H](C(=O)N(C)c2ccc(-c3nc4ccccc4o3)cc2)C1 , state whether its Growth Rate is at least 0.8.
stdout: Condition not met

stdin: Given CNC1(C)C2CCC(C2)C1(C)C.Cl (stereo not drawn) [MECAMYLAMINE HYDROCHLORIDE] , state whether its Growth Rate is at least 0.8.
stdout: Condition met

stdin: Given Cc1cc(OCCC(C)(C)O)cc(C)c1-c1ccc(F)c2c1CC[C@H]2Oc1ccc2c(c1)OC[C@H]2CC(=O)O , state whether its Growth Rate is at least 0.8.
stdout: Condition met

stdin: Given Nc1ncc2c(n1)-c1c([nH]c3ccc(C4CC4)cc13)CCCC2 , state whether its Growth Rate is at least 0.8.
stdout: Condition not met

stdin: Given COc1cc(F)ccc1-c1ncnc(Nc2cccc(C[S@](C)(=N)=O)c2)n1 , state whether its Growth Rate is at least 0.8.
stdout: Condition not met

// provenance: ChEMBL document CHEMBL5303304
